Where these numbers come from: the RepoRT retention time repository

Assay: Agilent ZORBAX 300 SB-C18, 150 × 1 mm, 3.5 µm; A: water + 0.01% heptafluorobutyric acid; B: acetonitrile + 0.01% heptafluorobutyric acid; gradient (min/%B) 0/0 100/90
Details: stereoisomer not certain
readout: LC retention time (min)

[
  {
    "compound": "CC(=O)Nc1c2ccccc2nc2ccccc12",
    "result unit": "min",
    "reported value": 7.89
  },
  {
    "compound": "Cc1cccnc1CN1CCN(Cc2ncccc2C)CC1",
    "result unit": "min",
    "reported value": 7.69
  },
  {
    "compound": "CN1CCN(C)CC1",
    "result unit": "min",
    "reported value": 6.13
  },
  {
    "compound": "CC1C(=O)CC[N+](C)(C)C1C (stereo unspecified)",
    "result unit": "min",
    "reported value": 7.63
  },
  {
    "compound": "Oc1ccc2c3c1OC1C(O)CCC4(O)C(C2)N(CC2CCC2)CCC314 (stereo unspecified)",
    "result unit": "min",
    "reported value": 8.75
  },
  {
    "compound": "CCc1cnccn1",
    "result unit": "min",
    "reported value": 8.09
  },
  {
    "compound": "O=c1oc2ccccc2c2nc(-c3ccncc3)ncc12",
    "result unit": "min",
    "reported value": 12.2
  },
  {
    "compound": "CCC(C)c1ccccc1NC(=S)Nc1cccnc1 (stereo unspecified)",
    "result unit": "min",
    "reported value": 11
  },
  {
    "compound": "CCCNC(=O)N1CCCC(C(N)=O)C1 (stereo unspecified)",
    "result unit": "min",
    "reported value": 6.98
  },
  {
    "compound": "C=C(C)CC1C=CCC(CC(=C)C)N1Cc1ccccc1 (stereo unspecified)",
    "result unit": "min",
    "reported value": 11.9
  },
  {
    "compound": "O=C(Nc1cccnc1)c1ccccn1",
    "result unit": "min",
    "reported value": 8.14
  }
]

* * *

Test: Agilent ZORBAX 300 SB-C18, 150 × 1 mm, 3.5 µm; A: water + 0.01% heptafluorobutyric acid; B: acetonitrile + 0.01% heptafluorobutyric acid; gradient (min/%B) 0/0 100/90
Conditions: stereoisomer not certain

[
  {
    "compound": "Cc1[nH]c2c(C)ccc(C)c2c1CCN",
    "LC retention time, min": 9.21
  },
  {
    "compound": "COc1ccc(NC(=O)c2ccc(N3C(=O)CCC3=O)cc2)cc1",
    "LC retention time, min": 10.3
  },
  {
    "compound": "CCCCC1CCC(C(=O)NCC2(N(C)C)CCCCC2)CC1 (stereo unspecified)",
    "LC retention time, min": 12.4
  },
  {
    "compound": "Cc1ccc(-c2cc(C(=O)O)c3ccccc3n2)cc1",
    "LC retention time, min": 12.4
  },
  {
    "compound": "CCN(CC)CCC(O)(c1ccccc1)C1CCCCC1 (stereo unspecified)",
    "LC retention time, min": 11.3
  },
  {
    "compound": "CC(=O)Nc1ccc(Cc2ccncc2)cc1",
    "LC retention time, min": 7.75
  },
  {
    "compound": "O=C1OCc2cc(-n3cccc3)ccc21",
    "LC retention time, min": 11.8
  },
  {
    "compound": "NCC1(O)CCCCC1",
    "LC retention time, min": 7.06
  },
  {
    "compound": "O=C1NC(=O)C(c2ccccc2)(c2ccccc2)N1",
    "LC retention time, min": 11
  },
  {
    "compound": "CCOC(=O)c1ccc(NC(=O)N2CCCC2)cc1",
    "LC retention time, min": 11.6
  },
  {
    "compound": "Nc1ccc(N)cc1",
    "LC retention time, min": 4.51
  }
]
